Each item that follows carries a reported IC50 neutralization.
target: HIV-1 APV6 envelope glycoprotein (Env) (HIV-1); test: cell-based or functional assay
Number in µg/mL, nothing else.

[
  {
    "binder": "PGT-126 (antibody, V domains shown) VH: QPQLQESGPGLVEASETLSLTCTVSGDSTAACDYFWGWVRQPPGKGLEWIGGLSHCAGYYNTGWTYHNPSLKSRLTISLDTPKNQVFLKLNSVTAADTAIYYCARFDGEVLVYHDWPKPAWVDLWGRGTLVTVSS VL: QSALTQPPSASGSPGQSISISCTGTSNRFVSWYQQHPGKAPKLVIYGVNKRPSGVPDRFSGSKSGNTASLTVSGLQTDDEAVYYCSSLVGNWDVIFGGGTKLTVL",
    "IC50 neutralization (µg/mL)": 0.0249
  }
]

The record that follows has no IC50 neutralization shown yet.
Any idea what its IC50 neutralization is? The binder is PGT-125 (antibody, V domains shown) VH: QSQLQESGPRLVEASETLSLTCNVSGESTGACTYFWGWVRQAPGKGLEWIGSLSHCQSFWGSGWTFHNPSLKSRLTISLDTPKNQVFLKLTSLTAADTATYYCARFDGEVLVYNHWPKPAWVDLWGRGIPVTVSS VL: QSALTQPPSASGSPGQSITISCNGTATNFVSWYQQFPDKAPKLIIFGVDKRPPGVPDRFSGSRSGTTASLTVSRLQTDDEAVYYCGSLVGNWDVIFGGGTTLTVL
0.0359
